Origin of the recorded values: paper PMC9440430

# Target Of Assay: p50/RelA-FL: p50 subunit (39-350);RelA-FL (RHD + TAD) (murine;murine, UniProt P25799;Q04207 39-350;19-549, |)
# Sequence (P25799 39-350, chain 1 of 2): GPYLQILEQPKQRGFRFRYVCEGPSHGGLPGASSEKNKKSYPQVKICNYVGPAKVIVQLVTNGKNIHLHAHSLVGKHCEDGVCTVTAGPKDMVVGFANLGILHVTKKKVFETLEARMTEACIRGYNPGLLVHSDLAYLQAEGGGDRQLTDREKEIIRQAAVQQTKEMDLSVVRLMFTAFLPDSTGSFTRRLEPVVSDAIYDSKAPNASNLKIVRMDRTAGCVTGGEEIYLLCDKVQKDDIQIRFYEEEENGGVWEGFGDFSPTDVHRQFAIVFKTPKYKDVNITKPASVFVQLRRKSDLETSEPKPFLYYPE
# Sequence (Q04207 19-549, chain 2 of 2): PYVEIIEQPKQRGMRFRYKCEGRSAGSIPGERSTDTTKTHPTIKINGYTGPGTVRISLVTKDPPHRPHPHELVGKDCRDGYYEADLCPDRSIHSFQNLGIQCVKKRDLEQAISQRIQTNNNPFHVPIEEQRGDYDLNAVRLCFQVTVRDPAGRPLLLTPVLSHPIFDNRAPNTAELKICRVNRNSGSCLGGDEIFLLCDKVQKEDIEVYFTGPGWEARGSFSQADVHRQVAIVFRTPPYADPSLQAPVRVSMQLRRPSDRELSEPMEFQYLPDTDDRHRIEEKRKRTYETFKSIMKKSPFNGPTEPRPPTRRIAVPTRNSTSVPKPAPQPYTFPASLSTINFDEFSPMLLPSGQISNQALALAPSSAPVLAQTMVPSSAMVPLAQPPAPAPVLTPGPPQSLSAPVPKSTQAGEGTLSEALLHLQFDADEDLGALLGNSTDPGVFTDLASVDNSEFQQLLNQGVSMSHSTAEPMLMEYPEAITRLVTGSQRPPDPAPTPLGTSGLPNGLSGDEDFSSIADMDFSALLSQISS
# Method Description: fluorescence anisotropy; SEC buffer 25 mM Tris pH 7.5, 150 mM NaCl, 0.5 mM EDTA, 1 mM DTT (FA buffer not stated explicitly; 5 nM DNA, RT incubation, read at 25 C); EMSA: SEC buffer 1:1
# Experimental Parameters: protein: recombinant;recombinant; tags: N-terminal His6;none; copies: 1;1; label: 5' fluorescein (FITC); hairpin
Some binders, each annotated with its measured Kd.
Give just the numeric value; nM need not be written.

| Binder | Kd, nM |
| --- | --- |
| GGGAAAGTACTCCCCCAGTACTTTCCC (structured_DNA, 5' 5AmMC6 amino linker) [Urokinase (UK) hairpin] | 2.2 |

Let us move to another entry and its Kd.
Input: For the binder shown here, GTAGACGTGCTCCCCCAGCACGTCTAC (structured_DNA, 5' 5AmMC6 amino linker) [Random hairpin] , give the reported Kd.
Output: 130
